The entries below are paired with their reported binding score.
Biological target: T1, Bdf1 bromodomain 1 (GST-tagged, WT) (Saccharomyces cerevisiae (strain ATCC …, UniProt P35817))
T1 chain: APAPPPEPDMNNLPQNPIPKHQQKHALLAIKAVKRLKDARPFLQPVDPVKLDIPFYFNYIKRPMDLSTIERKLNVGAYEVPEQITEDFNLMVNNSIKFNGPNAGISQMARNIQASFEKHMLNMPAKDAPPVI
Test: histone peptide array probed with recombinant GST-bromodomain, signal normalised to myc peptide control
Non-standard residues stand in square brackets, D forms with d. No end group written: not given here. Arg(Me2a) = CN(C)C(=N)NCCC[C@H](N)C(=O)O; Lys(Me3) = C[N+](C)(C)CCCC[C@H](N)C(=O)O; Arg(Me2s) = CN=C(NC)NCCC[C@H](N)C(=O)O; pT = C[C@@H](OP(=O)(O)O)[C@H](N)C(=O)O; Lys(Me2) = CN(C)CCCC[C@H](N)C(=O)O; pS = N[C@@H](COP(=O)(O)O)C(=O)O; Lys(Me) = CNCCCC[C@H](N)C(=O)O
Form field (numeric): enter value without unit.

Requested field: binding score. Item: A[Arg(Me2a)]T[Lys(Me)]QTA[Arg(Me2s)][Lys(Me2)]STGGKAPRKQ
0.00448

Lookup PDPAK(Ac)SAPAPKKG[pS]K(Ac)KAVT [H2B 1-19]
0

Likewise for A[Arg(Me2s)][pT]KQTARKSTGGKAPRKQ ?
0

# repeat for SGRGKGGKGLGKGGAKRHR (pS G Rme2a G Kac G G Kac G L G K G G A K R H R) [H4 1-19]
0.0927

Same lookup for ART[Lys(Me3)]QTA[Arg(Me2a)][Lys(Me2)]STGGKAPRKQ , please.
0.000538

Then ART[Lys(Me3)]QTA[Arg(Me2a)][Lys(Me)]STGGKAPRKQ ?
0

And for A[Arg(Me2a)][pT]K(Ac)QTARKSTGGKAPRKQ ?
0.0346

Queued: A[Arg(Me2s)]T[Lys(Me3)]QTA[Arg(Me2s)][Lys(Me3)]STGGKAPRKQ
0.00789

More entries:
Fill in: binding score of ARTKQTA[Arg(Me2a)]K(Ac)[pS]TGGKAPRKQ is ___
0.00126

Then what about the binder A[Arg(Me2s)]T[Lys(Me)]QTA[Arg(Me2a)][Lys(Me)]STGGKAPRKQ ?
0.00126

What would you report for ARTKQTARKSTGGKAPRKQ (A R T Kme1 Q T A Rme2s Kme2 S T G G K A P R K Q) ?
0.00879

Please answer likewise for A[Arg(Me2s)][pT]K(Ac)QTARKSTGGKAPRKQ
0.0231

What about PRKQLATKAA[Arg(Me2s)][Lys(Me3)]SAPATGG [H3 16-35] ?
5.8e-17

These entries and their values trace back to paper PMC5261807.
